assay: AUC(0 to infinity) in overnight fasted Sprague-Dawley rat at 20 mg/kg, iv by HPLC analysis; assay type: ADME, organism-based; set-up: time infinity, dose 20 mg/kg, route iv; conditions: in vivo
ASSAY_READOUT: AUC(0-inf) (µg·h/mL)
Answers are plain numbers, in µg·h/mL.

Given item CN1CCN(c2ccc(Nc3ncc4cc(CNc5ccccc5)n(C5CCCC5)c4n3)cc2)CC1 , the value recorded as its AUC(0-inf) is 15.9

----------
assay: Half life in overnight fasted Sprague-Dawley rat at 20 mg/kg, po by HPLC analysis; format: ADME, organism-based; conditions: in vivo
ASSAY_READOUT: half-life (h)
Answers are plain numbers, in h.

Entry CN1CCN(c2ccc(Nc3ncc4cc(CNc5ccccc5)n(C5CCCC5)c4n3)cc2)CC1 , half-life reported as 11.2

----------
system: Epidermal growth factor receptor (Homo sapiens), P00533 [L858R,T790M,C797S]; experiment: Inhibition of EGFR L858R/T790M/C797S mutant (unknown origin) at 1 uM relative to control
Sequence (P00533 whole entry T790M/C797S/L858R): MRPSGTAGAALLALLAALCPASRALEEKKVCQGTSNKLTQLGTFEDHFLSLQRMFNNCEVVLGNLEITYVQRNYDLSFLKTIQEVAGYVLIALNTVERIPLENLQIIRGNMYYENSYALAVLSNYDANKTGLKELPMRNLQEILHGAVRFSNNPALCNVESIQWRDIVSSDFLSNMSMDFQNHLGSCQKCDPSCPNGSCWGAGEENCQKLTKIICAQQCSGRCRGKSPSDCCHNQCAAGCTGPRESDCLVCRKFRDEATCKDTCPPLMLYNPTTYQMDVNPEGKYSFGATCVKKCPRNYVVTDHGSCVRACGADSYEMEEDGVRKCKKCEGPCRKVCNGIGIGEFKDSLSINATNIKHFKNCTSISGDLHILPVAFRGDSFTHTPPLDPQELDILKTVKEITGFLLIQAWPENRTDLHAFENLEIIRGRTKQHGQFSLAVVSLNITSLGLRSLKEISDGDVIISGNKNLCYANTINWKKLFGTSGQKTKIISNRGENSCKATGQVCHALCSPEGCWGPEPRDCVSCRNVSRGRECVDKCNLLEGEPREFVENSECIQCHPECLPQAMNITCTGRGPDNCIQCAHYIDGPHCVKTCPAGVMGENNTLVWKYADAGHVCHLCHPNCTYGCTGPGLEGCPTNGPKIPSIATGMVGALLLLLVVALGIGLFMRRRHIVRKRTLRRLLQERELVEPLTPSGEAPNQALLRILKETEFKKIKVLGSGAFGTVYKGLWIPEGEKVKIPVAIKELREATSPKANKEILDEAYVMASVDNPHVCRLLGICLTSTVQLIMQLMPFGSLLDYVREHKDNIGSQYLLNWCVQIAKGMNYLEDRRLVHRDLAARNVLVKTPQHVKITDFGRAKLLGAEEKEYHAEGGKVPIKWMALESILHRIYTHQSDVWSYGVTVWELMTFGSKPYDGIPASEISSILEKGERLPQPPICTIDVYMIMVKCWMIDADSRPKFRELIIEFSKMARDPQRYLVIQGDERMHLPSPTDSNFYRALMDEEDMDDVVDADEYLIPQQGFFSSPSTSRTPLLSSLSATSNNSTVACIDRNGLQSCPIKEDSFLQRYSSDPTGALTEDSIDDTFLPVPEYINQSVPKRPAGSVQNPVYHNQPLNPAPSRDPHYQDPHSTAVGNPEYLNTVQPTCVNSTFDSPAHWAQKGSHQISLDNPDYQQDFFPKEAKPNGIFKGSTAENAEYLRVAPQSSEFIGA
ASSAY_READOUT: inhibition (%)
Numbers only, in %.

Completed entries (count: 5):
MOLECULE | inhibition, %
C=CC(=O)Nc1cc(Nc2ncc3cc(C(=O)Nc4cccc(N(C)C)c4)n(C4CCCC4)c3n2)c(OC)cc1N(C)CCN(C)C | 16
C=CC(=O)Nc1cc(Nc2ncc3cc(C(=O)Nc4ccc(OC)c(OC)c4)n(C4CCCC4)c3n2)c(OC)cc1N(C)CCN(C)C | 8.7
C=CC(=O)Nc1cc(Nc2ncc3cc(C(=O)Nc4ccnc(OC)c4)n(C4CCCC4)c3n2)c(OC)cc1N(C)CCN(C)C | 4.1
C=CC(=O)Nc1cc(Nc2ncc3cc(C(=O)Nc4ccnc(C)c4)n(C4CCCC4)c3n2)c(OC)cc1N(C)CCN(C)C | 8.3
C=CC(=O)Nc1cc(Nc2ncc3cc(C(=O)Nc4cccc(OC)c4)n(C4CCCCC4)c3n2)c(OC)cc1N(C)CCN(C)C | 4.9

Items follow; give inhibition for each.
1. C=CC(=O)Nc1cc(Nc2ncc3cc(CNc4cccc(OC)c4)n(C4CCCC4)c3n2)c(OC)cc1N(C)CCN(C)C
2. C=CC(=O)Nc1cc(Nc2ncc3cc(C(=O)Nc4ccccc4OC)n(C4CCCC4)c3n2)c(OC)cc1N(C)CCN(C)C
3. C=CC(=O)Nc1cc(Nc2ncc3cc(C(=O)Nc4cccc(C)c4)n(C4CCCC4)c3n2)c(OC)cc1N(C)CCN(C)C

Key:
1. 56
2. 18
3. 14

Answer for every listed entry: what is its inhibition? The entries follow.
1. C=CC(=O)Nc1cc(Nc2ncc3cc(CNc4cc(C)cc(C)c4)n(C4CCCC4)c3n2)c(OC)cc1N(C)CCN(C)C
2. C=CC(=O)Nc1cc(Nc2ncc3cc(C(=O)Nc4ccc(OC)cc4)[nH]c3n2)c(OC)cc1N(C)CCN(C)C
3. C=CC(=O)Nc1cc(Nc2ncc3cc(C(=O)Nc4ccccc4)n(C4CCCC4)c3n2)ccc1N1CCN(C)CC1
4. C=CC(=O)Nc1cc(Nc2ncc3cc(C(=O)NC4CCCc5ccccc54)n(C4CCCC4)c3n2)c(OC)cc1N(C)CCN(C)C (stereo not given)
5. C=CC(=O)Nc1cc(Nc2ncc3cc(C(=O)Nc4cccc(OC)c4)n(C4CCCC4)c3n2)c(OC)cc1N(C)CCN(C)C
6. C=CC(=O)Nc1cc(Nc2ncc3cc(C(=O)Nc4ccc(F)c(Cl)c4)n(C4CCCC4)c3n2)c(OC)cc1N(C)CCN(C)C
7. C=CC(=O)Nc1cc(Nc2ncc3cc(C(=O)Nc4cccc(O)c4)n(C4CCCC4)c3n2)c(OC)cc1N(C)CCN(C)C

Key:
[-8.4, 9.5, 37, 23, 17, 10, 22]
